Recorded measurements of Ki, one per entry
Molecular target: Chitinase (Onchocerca volvulus, UniProt Q25615)
Sequence (Q25615 whole entry): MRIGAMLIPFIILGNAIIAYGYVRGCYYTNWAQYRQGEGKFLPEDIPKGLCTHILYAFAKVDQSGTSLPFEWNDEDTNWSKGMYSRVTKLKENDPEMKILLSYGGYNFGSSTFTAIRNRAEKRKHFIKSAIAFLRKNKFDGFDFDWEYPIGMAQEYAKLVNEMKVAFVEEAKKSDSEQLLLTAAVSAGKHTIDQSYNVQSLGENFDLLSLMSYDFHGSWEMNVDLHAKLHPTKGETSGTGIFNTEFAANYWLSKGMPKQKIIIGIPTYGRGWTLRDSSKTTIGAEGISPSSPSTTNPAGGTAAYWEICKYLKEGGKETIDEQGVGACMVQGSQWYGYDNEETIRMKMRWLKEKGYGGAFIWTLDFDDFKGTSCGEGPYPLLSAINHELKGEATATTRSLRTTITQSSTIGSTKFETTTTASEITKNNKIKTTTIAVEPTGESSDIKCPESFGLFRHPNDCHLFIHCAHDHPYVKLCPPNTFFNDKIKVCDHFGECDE
Respond numerically; units are nM and should not be typed.

Identify measured Ki associated with COc1ccc2c(c1)[nH]c1c(C)nccc12 [HARMINE]
3780

---
Tell me its Ki given Cc1c2[nH]c3cc(OCc4ccc(Cl)cc4)ccc3c2cc[n+]1Cc1ccc(Cl)cc1.[Br-] as the entry.
980

* * *

Molecular target: Chitinase (Onchocerca volvulus) (UniProt Q25615)
Sequence (whole entry): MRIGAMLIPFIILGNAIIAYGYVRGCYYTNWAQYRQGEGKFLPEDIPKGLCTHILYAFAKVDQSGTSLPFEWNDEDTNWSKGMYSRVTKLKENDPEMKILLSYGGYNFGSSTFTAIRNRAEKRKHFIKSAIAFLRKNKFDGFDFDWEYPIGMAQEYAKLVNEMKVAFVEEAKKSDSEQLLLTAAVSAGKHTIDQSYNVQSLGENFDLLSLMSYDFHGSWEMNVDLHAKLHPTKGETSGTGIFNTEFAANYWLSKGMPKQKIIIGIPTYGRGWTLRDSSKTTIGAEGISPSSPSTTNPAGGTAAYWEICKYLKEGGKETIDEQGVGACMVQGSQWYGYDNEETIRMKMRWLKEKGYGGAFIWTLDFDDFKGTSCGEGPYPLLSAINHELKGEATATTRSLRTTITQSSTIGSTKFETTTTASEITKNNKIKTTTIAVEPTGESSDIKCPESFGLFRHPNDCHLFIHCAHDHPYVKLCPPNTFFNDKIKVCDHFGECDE
Assay: Inhibition of L3 larval stage of Onchocerca volvulus chitinase using 4-methylumbelliferyl-N-N'-N''-beta-chitotrioside as substrate assessed as release of 4-methylumbelliferone at 10 uM measured for 10 mins by fluorescence assay
Assay type: tissue-based
Activity calls are given as the source filed them. No cut-off for these calls is given here.
measurement-kind: inhibition

Answer with the recorded inhibition for the compound listed here: Cc1nccc2c3ccccc3n(Cc3ccc(Cl)cc3)c12
inactive

Please report the measured inhibition for Cc1c2[nH]c3ccccc3c2cc[n+]1C
inactive

Give the value of inhibition reported for the following: CCNS(=O)(=O)c1ccc2[nH]c3cnccc3c2c1
inactive

* * *

Biological target: Chitinase (Onchocerca volvulus)
Sequence (Q25615 whole entry): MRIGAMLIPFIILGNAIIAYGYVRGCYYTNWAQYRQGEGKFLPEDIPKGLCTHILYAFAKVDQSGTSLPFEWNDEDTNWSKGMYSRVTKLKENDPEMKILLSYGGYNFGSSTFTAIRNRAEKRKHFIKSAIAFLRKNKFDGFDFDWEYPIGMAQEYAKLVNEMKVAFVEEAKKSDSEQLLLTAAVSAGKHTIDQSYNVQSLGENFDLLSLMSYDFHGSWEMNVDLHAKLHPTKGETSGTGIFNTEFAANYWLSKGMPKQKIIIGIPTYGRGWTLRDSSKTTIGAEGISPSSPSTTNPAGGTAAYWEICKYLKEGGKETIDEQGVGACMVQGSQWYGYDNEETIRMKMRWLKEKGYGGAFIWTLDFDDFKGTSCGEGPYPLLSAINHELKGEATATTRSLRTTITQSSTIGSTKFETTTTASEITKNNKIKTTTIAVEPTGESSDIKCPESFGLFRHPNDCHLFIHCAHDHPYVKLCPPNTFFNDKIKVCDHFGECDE
measurement-kind: IC50 (µM)
I only need the number, in µM, no unit after it.

Answered examples (4):
Read off the recorded IC50 for Cc1[nH]ccc2c1[nH]c1cc(=O)ccc12
7.08

Tell us which IC50 value is on record for COc1ccc2c(c1)[nH]c1c(C)[n+](CC3CC3)ccc12.[Br-]
3.57

Return reported IC50. Input compound: COc1ccc2c(c1)[nH]c1c(C)[n+](Cc3ccc(Cl)cc3)ccc12.[Br-]
3.49

Give reported IC50 value for Cc1c2[nH]c3cc(OCc4ccc(Cl)cc4)ccc3c2cc[n+]1Cc1ccc(Cl)cc1.[Br-]
1.43

Further cases:
Write down IC50 measured for item Cc1nccc2c1[nH]c1ccccc12
7.33
